Target: PKC-zeta (Homo sapiens)
Construct: purchased Calbiochem
Sequence (Q05513 1-592): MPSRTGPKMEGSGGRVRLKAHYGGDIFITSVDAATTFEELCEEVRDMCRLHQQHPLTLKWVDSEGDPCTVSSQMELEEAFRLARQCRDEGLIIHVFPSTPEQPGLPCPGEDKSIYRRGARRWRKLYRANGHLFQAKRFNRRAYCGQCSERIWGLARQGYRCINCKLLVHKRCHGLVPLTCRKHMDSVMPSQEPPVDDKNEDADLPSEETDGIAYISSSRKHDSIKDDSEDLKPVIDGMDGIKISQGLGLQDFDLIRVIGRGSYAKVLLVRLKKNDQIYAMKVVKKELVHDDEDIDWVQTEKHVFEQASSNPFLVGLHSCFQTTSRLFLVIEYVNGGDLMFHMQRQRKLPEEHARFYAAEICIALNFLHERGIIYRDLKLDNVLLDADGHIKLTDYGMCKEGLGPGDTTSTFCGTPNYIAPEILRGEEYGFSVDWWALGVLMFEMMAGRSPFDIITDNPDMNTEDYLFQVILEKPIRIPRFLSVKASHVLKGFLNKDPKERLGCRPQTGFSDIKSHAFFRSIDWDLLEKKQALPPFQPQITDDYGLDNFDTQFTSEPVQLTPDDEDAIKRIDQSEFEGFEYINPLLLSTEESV
Assay: In vitro kinase assay: peptide phosphorylation by PKC-zeta
Format: biochemical
Settings: peptide concentration 1 uM
observedProperty: phosphorylation by PKC zeta

Recorded result, 126 (KAIKAIEGGQKFARKSTRRS) [compound 126] , phosphorylation by PKC zeta: 46

Recorded result, 164 (TEGKMARVAWKGKRRSKARK) [compound 164] , phosphorylation by PKC zeta: 3

Recorded result, 136 (RARRDSLKKIEIW) [compound 136] , phosphorylation by PKC zeta: 6

Recorded result, 163 (PPRTPGWHQLQPRRVSFRGE) [compound 163] , phosphorylation by PKC zeta: 7

Recorded result, 117 (NRKKKRTSFKRKA) [compound 117] , phosphorylation by PKC zeta: 20
